- tested-system: T1, human CD3 on T-cell lines (CD3-expressing Jurkat cells; HUT78 cells) (human, UniProt P07766 23-207)
- T1 construct: On cells it stands in the CD3/TCR complex
- T1 sequence (P07766 23-207 limits assumed): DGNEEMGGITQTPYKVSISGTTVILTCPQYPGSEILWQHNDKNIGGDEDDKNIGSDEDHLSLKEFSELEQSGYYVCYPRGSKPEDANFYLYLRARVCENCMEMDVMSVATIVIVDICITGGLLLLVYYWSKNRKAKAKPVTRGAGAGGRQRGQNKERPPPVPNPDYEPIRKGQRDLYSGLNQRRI
- experiment-summary: flow cytometry, HUT78 cells
assay-readout: Bmax (MFI)
Report as: number unit

2037-B10_Hc-Y55D (antibody, human IgG1, lambda, V domains shown, human IgG1, lambda; also called SRP 2037 Y55D; 2037-B10_VH-Y55D) VH: EVQLVESGGGLVKPGGSLRLSCAASGFTFNKYAMNWVRQAPGKGLEWVARIRTKDNNYATYYADSVKDRFTISRDDSKNTAYLQMNSLKTEDTAVYYCVRHGNFGNSYISYWAYWGQGTPVTVSS VL: QTVVTQEPSLTVSPGGTVTLTCGSSTGAVTSGYYPNWLQQKPGQAPRGLIGGTKFLAPGTPARFSGSLLGGKAALTLSGVQPEDEAEYYCALWYSNRWVFGGGTQLTVTG ... 544 MFI

For the binder 2037-B10_Hc-K31D (antibody, human IgG1, lambda, V domains shown, human IgG1, lambda; also called SRP 2037 K31D; 2037-B10_VH-K31D) VH: EVQLVESGGGLVKPGGSLRLSCAASGFTFNDYAMNWVRQAPGKGLEWVARIRTKYNNYATYYADSVKDRFTISRDDSKNTAYLQMNSLKTEDTAVYYCVRHGNFGNSYISYWAYWGQGTPVTVSS VL: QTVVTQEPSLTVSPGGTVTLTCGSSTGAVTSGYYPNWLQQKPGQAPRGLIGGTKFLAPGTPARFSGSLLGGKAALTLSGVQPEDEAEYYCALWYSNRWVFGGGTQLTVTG , what Bmax (MFI) is on record?
1060 MFI

May I ask what Bmax (MFI) has been recorded for 2037-B10_Hc-F27D (antibody, human IgG1, lambda, V domains shown, human IgG1, lambda; also called SRP 2037 F27D; 2037-B10_VH-F27D) VH: EVQLVESGGGLVKPGGSLRLSCAASGDTFNKYAMNWVRQAPGKGLEWVARIRTKYNNYATYYADSVKDRFTISRDDSKNTAYLQMNSLKTEDTAVYYCVRHGNFGNSYISYWAYWGQGTPVTVSS VL: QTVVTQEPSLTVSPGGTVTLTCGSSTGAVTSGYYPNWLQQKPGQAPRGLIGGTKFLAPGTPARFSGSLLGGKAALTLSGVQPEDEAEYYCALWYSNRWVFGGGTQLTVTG ?
1360 MFI

What value of measured Bmax (MFI) is listed for 2037-B10_Hc-R52D (antibody, human IgG1, lambda, V domains shown, human IgG1, lambda; also called SRP 2037 R52D; 2037-B10_VH-R52D) VH: EVQLVESGGGLVKPGGSLRLSCAASGFTFNKYAMNWVRQAPGKGLEWVARIDTKYNNYATYYADSVKDRFTISRDDSKNTAYLQMNSLKTEDTAVYYCVRHGNFGNSYISYWAYWGQGTPVTVSS VL: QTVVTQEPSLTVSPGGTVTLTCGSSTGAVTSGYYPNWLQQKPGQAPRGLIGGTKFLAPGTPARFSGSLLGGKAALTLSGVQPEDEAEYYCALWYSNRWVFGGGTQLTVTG ?
142 MFI

Any idea what its Bmax (MFI) is? The binder is 2037-B10_Hc-A33D (antibody, human IgG1, V domains shown, human IgG1, lambda; also called SRP 2037 A33D; 2037-B10_VH-A33D) VH: EVQLVESGGGLVKPGGSLRLSCAASGFTFNKYDMNWVRQAPGKGLEWVARIRTKYNNYATYYADSVKDRFTISRDDSKNTAYLQMNSLKTEDTAVYYCVRHGNFGNSYISYWAYWGQGTPVTVSS VL: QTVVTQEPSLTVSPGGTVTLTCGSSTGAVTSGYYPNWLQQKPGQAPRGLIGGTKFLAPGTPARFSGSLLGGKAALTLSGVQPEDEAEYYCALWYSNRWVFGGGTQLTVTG
103 MFI
